Field: pIC50. System: HPK1 (Homo sapiens (Human)). Provenance: assorted publications.
pIC50: −log10 of the molar value.
Readout kind: pIC50

INSERT INTO assay_data (molecule, test_result) VALUES
  ('CS(=O)(=O)c1ccc(Nc2ncc(C(N)=O)c(Nc3c(F)cccc3CO)n2)cc1', 7.04),
  ('Cc1ccc(NC(=O)c2cc(C(F)(F)F)ccn2)cc1C1=Cc2cnc(Nc3ccccn3)nc2N2CCN=C12', '5.00 to 7.00'),
  ('CN(C)C(C)(C)C1CCCN(c2ccc(Nc3ccc(-c4cnc5cc(F)ccn45)c4c3C(=O)NC4)nc2)C1 (stereo not shown)', '> 7.00'),
  ('COC[C@@H]1CN(c2ccc(Nc3ccc(-c4cnc5cc(F)ccn45)c4c3C(=O)NC4)nc2)CCO1', '> 7.00'),
  ('Cn1ccc2c(-c3ccc(Nc4ccc(N5CCNCC5)cn4)c4c3C(C)(C)NC4=O)ccnc21', '< 6.00'),
  ('CNCc1cc(C)c(-c2ccc3[nH]nc(-c4ccc5c(c4)OCC4CN(C)CCN54)c3n2)c(F)c1 (stereo not shown)', '7.00 to 8.00'),
  ('COc1cc2c(cc1Nc1ncc(C(N)=O)c(Nc3ccccc3N3C(=O)OC[C@@H]3C)n1)CN(C)CC2', 9.82);

----------
Several reports have described pIC50 for HPK1 (Homo sapiens (Human)); a selection of those results is presented here.
pIC50: −log10 of the molar value.
Readout kind: pIC50

INSERT INTO measurements (item_smiles, test_result) VALUES
  ('COCCCNC(=O)CCN1CCc2c(C)cc(-c3cnc4[nH]cc(-c5ccc(C(=O)N(C)C)c(C)c5)c4n3)cc2C1', 7.09),
  ('COc1ccc(C(N)=O)cc1Nc1ncc(C(N)=O)c(Nc2ccccc2Br)n1', 6.26),
  ('CCc1cnc(C)cc1-c1ncc(Nc2ccc(N3CCNCC3)cn2)c2c1CNC2=O', '5.30 to 6.00'),
  ('CN1CCN(c2ccc(-c3n[nH]c4cc(=O)n(-c5c(F)cccc5Cl)nc34)cn2)CC1', '≥ 7.30'),
  ('CN1CCc2c(ccc(F)c2-c2cc(Nc3ccc(N4CCC(O)CC4)cn3)c3c(=O)[nH]ccc3n2)C1', '< 6.00'),
  ('Cc1ccn2c(-c3ccc(Nc4ccc(N5CCC(O)(CN6CCN(C)CC6)CC5)cn4)c4c3CNC4=O)cnc2c1F', '> 7.00'),
  ('CCn1nc(N/C(C)=C2\C(=O)Nc3cnc(-c4cnccc4C)cc32)cc1C', '> 7.30'),
  ('N#Cc1ccncc1-c1ccc(NC(=O)c2ccc(=O)n(-c3c(F)cccc3F)n2)c(N2CCNCC2)c1', '> 7.00');

----------
pIC50: −log10 of the molar value.
Below are pIC50 measurements against UniProtKB Q92918 drawn from the literature.
Readout kind: pIC50

INSERT INTO measurements (compound, readout_kind, comparator, test_result) VALUES
  ('C[C@H]1C[C@@H](O)CCN1c1ccc(Nc2ccc(-c3cnc4cnccn34)c3c2C(=O)NC3)nc1', 'pIC50', '>', 7.00),
  ('O=C1NCc2c(-c3cnc4cnccn34)ccc(Nc3ccc(N4CCCOCC4)cn3)c21', 'pIC50', '>', 7.00),
  ('CC(=O)NCc1ccc(Nc2ncc3c(N)c(F)c(-c4cnc5c(c4C)NCCO5)cc3n2)cc1', 'pIC50', '=', 10.09),
  ('CCOc1nc2c(cc1Nc1ncc3ccnc(N[C@@H](CO)C(C)(C)C)c3n1)CN(C)CC2', 'pIC50', '=', 9.60),
  ('Cc1nc2c(N3CC[C@H](N)C3)c(NC(=O)c3ccc(=O)n(-c4c(F)cccc4F)n3)ccc2n1C1CCOCC1', 'pIC50', '>', 7.00),
  ('Cn1ccc2c(-c3ccc(Nc4ccc(N5CCC[C@@H](O)C5)cn4)c4c3CNC4=O)ccnc21', 'pIC50', '>', 7.00),
  ('Cc1c(-c2cc3nc(Nc4cnn(C5CCN(C)C5=O)c4)ncc3c(N)c2F)cnc2c1NCCO2 (single isomer, unassigned)', 'pIC50', '=', 9.46),
  ('CCN1CCN(Cc2ccc(NC(=O)c3ccc(-c4ncc(Nc5ccc(N6CCN(C)CC6)cn5)c5c4CNC5=O)cc3)cc2C(F)(F)F)CC1', 'pIC50', '>', 6.00),
  ('COc1cc2c(cc1Nc1ncc3ccc(-c4ccc5c(c4)OCO5)cc3n1)CNCC2', 'pIC50', '=', 6.86),
  ('C[C@@H]1COC(=O)N1c1cc(N)c2cnc(Nc3ccc(S(C)(=O)=O)cc3)nc2c1', 'pIC50', '=', 7.61),
  ('COc1cc(Nc2cnc(-c3ccnc4c3ccn4C)c3c2C(=O)NC3)nc(N2CC[C@H]3CNC[C@H]32)c1', 'pIC50', '>', 7.00),
  ('COc1cc2c(cc1Nc1ncc(C(N)=O)c(NCc3ccc(C#N)cc3)n1)CN(C)CC2', 'pIC50', '=', 7.32),
  ('COc1cc(-c2cc(Nc3ccc(N4CCC(O)CC4)cn3)c3c(=O)[nH]ccc3n2)c(F)cc1C(=O)N1CC2C(C1)C2(F)F (stereo not drawn)', 'pIC50', '≥', 7.00),
  ('C/C(Nc1cc(C)n(C)n1)=C1/C(=O)Nc2cnc(-c3cc(F)ccc3C)cc21', 'pIC50', '>', 7.30),
  ('CNCCN(C)C(=O)c1cnn(-c2nc(-c3cc(C)c4c(c3)CN(C)CC4)cnc2N)c1', 'pIC50', '=', 7.72);

----------
Consider the following IC50 data for HPK1 (Homo sapiens (Human)), collected from several reports.
Readout kind: IC50

INSERT INTO assay_data (compound, readout_kind, test_result) VALUES
  ('COc1cc2c(cc1Nc1ncc(C(N)=O)c(NC3CCCCC3)n1)CN(C)CC2', 'IC50', '0.6 nM'),
  ('C/C(Nc1cnn(C)c1)=C1/C(=O)Nc2cnc(-c3cnccc3C)cc21', 'IC50', '< 50 nM'),
  ('CC1(C)CN(c2c(NC(=O)c3ccc(=O)n(-c4c(F)cccc4F)n3)ccc3nn([C@@H]4CCOC4)cc23)C[C@@H]1N', 'IC50', '< 100 nM'),
  ('CN1CCN2c3ccc(-c4n[nH]c5cc(C#N)c(-c6c(F)cc(OCc7ccncc7)cc6F)cc45)cc3OCC2C1 (stereo not shown)', 'IC50', '≤ 10 nM');

----------
Study the reported pIC50 values for HPK1 (Homo sapiens (Human), UniProt Q92918) given below; they originate from different publications.
pIC50: −log10 of the molar value.
Readout kind: pIC50

INSERT INTO assay_data (compound, test_result) VALUES
  ('C/C(Nc1ccn(C2CCN(C3COC3)CC2)n1)=C1/C(=O)Nc2cnc(-c3cnccc3C)cc21', '> 7.30'),
  ('COCCN1CCN(c2ccc(-c3n[nH]c4cc(=O)n(-c5c(C)cccc5F)nc34)cn2)CC1', '≥ 7.30'),
  ('NC(=O)c1cnc(Nc2ccc3c(c2)CNCC3)nc1NC1CCc2cc(F)c(F)cc21 (stereo not drawn)', 9.64),
  ('Cc1ccn2c(-c3ccc(Nc4ccc([C@H]5CCOC5)cn4)c4c3CNC4=O)cnc2c1', '> 7.00'),
  ('CC(C)c1nc2c(N3CC4C[C@]4(N)C3)c(NC(=O)c3ccc(=O)n(-c4c(F)cccc4F)n3)ccc2n1C (stereo partly drawn)', '> 7.00'),
  ('CN(C)Cc1nc(Nc2ccc(-c3cnc4cc(F)ccn34)c3c2C(=O)NC3)ccc1O[C@H]1CCOC1', '> 7.00'),
  ('O=C(Nc1ccc(-c2cc(Nc3ccc(N4CCC(O)CC4)cn3)c3c(=O)[nH]ccc3n2)c(F)c1)[C@@H]1C[C@H]2CC[C@@H]1C2 (single isomer, unassigned)', '≥ 7.00'),
  ('Cn1ccc2c(-c3ncc(Nc4ccc(N5CCNCC5)cn4)c4c3CNC4=O)cccc21', '> 7.00'),
  ('COc1cc2c(cc1Nc1ncc3ccc(-c4cnc5c(c4)OCCN5C)cc3n1)CNCC2', 7.07),
  ('CCN1CCN(c2ccc(-c3n[nH]c4cc(=O)n(-c5c(C)cccc5F)nc34)cn2)CC1', '≥ 7.30'),
  ('CN(C)Cc1nc(Nc2ccc(-c3cnc4cc(C#N)ccn34)c3c2C(=O)NC3)ccc1C1CCOC1 (single isomer, unassigned)', '≥ 7.00'),
  ('COc1cc2c(cc1Nc1ncc(C(N)=O)c(NCc3nccs3)n1)CN(C)CC2', 8.31),
  ('Cc1cccc(F)c1-n1nc2c(-c3ccc(OCC4CNCCN4)cc3)n[nH]c2cc1=O (stereo not drawn)', '≥ 7.30'),
  ('O=C1NCc2c(-c3cnn4ccccc34)ccc(Nc3ccc(N4CCNCC4)cn3)c21', '> 7.00'),
  ('CNc1ncc2c(n1)N1CCN=C1C(c1cc(NC(=O)c3ccnc(C(C)(C)C#N)c3)ccc1C)=C2', '> 7.00');
